Molecular target: PTP1B (Homo sapiens, UniProt P18031)
Sequence (P18031 whole entry): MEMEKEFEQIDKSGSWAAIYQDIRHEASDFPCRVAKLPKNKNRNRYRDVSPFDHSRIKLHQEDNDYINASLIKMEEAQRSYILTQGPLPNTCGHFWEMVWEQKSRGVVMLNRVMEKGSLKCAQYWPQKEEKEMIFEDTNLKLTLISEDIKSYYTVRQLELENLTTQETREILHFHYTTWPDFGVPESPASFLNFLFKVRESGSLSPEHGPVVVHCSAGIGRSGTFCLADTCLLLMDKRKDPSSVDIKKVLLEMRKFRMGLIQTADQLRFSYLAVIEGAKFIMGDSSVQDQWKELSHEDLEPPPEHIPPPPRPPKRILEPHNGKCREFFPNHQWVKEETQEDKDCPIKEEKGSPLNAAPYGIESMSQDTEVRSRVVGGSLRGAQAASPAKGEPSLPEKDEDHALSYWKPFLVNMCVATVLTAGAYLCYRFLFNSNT
Test: FP-based library screening (fluorescence polarization displacement)
Assay type: binding
Settings: library 3; 0.5 μM enzyme, 5 μM Example 6 compound as competitor
// reported Displacement %, PTP1B for each item listed

| COMPOUND | Displacement %, PTP1B / % |
| --- | --- |
| CN(C)c1ccc(CC(=O)O)cc1 [2-(4-(dimethylamino)phenyl) acetic acid] | 81 |
| COc1cc(CC(=O)O)ccc1O | 51 |
| O=C(O)Cc1ccc(O)cc1 [2-(4-hydroxyphenyl)acetic acid] | 66 |
| O=C(O)Cc1ccc(Br)cc1 [2-(4-bromophenyl)acetic acid] | 77 |
